biological target: T1, HLA-DR3 (DRB1*0301) (human); experiment: competition binding assay, purified HLA, 125I-labelled probe peptide, gel filtration; settings: remark: other sources report otherwise
T1 chain 1: not shown
T1 chain 2: not shown
Assay Metric: relative binding ratio (ratio to standard peptide)

WDQLFRNPHQALLHT [HER2/neu peptide … (position 482)] :: 0.9
FRELVSEFSRMARDP [HER2/neu peptide … (position 969)] :: 0.071
PESFDGDPASNTAPL [HER2/neu peptide … (position 378)] :: -0.0027
LQGLPREYVNARHCL [HER2/neu peptide … (position 547)] :: -0.0027

(A) CYGLGMEHLREVRAV [HER2/neu peptide … (position 342)]
(B) LQRYSEDPTVPLPSE [HER2/neu peptide … (position 1109)]
Lowest relative binding ratio (ratio to standard peptide)? choose A or B Answer with the label corresponding to your selection. A
(A: 0.0083, B: 0.027)
